Source of measurements: ChEMBL document CHEMBL1134129

# TARGET: UniProt:Q9N1N9
# Sequence (Q9N1N9 whole entry): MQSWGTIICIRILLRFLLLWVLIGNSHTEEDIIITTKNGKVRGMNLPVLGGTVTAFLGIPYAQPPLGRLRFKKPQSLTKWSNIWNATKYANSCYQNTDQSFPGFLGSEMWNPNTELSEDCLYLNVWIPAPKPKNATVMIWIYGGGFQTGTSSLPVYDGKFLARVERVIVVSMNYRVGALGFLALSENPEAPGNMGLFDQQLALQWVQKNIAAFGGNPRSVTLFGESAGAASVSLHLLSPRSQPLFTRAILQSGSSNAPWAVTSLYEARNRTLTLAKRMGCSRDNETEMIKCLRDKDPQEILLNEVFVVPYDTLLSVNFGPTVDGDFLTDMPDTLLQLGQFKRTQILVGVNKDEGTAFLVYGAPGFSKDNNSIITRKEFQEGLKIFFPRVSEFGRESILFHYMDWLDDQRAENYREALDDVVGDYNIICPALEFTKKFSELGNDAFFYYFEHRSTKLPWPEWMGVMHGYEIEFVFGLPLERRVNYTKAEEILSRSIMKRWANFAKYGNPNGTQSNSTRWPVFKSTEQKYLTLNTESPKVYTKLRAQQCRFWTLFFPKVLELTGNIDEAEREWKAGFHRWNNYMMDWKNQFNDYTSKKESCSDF
Kindly apply the following: T if Ki is less than 80 nM, F in every other case.

Completed entries (count: 6):
Nc1c2c(nc3cc(Cl)cc(Cl)c13)CCCC2
T
c1ccc2c(NCCCCCCCSc3c4c(nc5ccccc35)CCCC4)c3c(nc2c1)CCCC3
T
Clc1cc(Cl)c2c(NCCCCCCCSc3c4c(nc5ccccc35)CCCC4)c3c(nc2c1)CCCC3
F
c1ccc2c(NCCCCCCCNc3c4c(nc5ccccc35)CCCC4)c3c(nc2c1)CCCC3
T
c1ccc2c(SCCCCCCCSc3c4c(nc5ccccc35)CCCC4)c3c(nc2c1)CCCC3
F
Clc1cc(Cl)c2c(SCCCCCCNc3c4c(nc5ccccc35)CCCC4)c3c(nc2c1)CCCC3
T

INPUT: Quick check: Ki of "c1ccc2c(NCCCCSc3c4c(nc5ccccc35)CCCC4)c3c(nc2c1)CCCC3" under 80 nM?
OUTPUT: T
